Experimental target: T1, IFN-αJ1 (human, UniProt P01567 24-189)
T1 construct: Recombinant, HEK293; also called IFN-α7
Test: ProteOn SPR, cell supernatant;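 also: each binding measurement used just a single antigen concentration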
Value type: pKd
pKd (log units): -log10 of the concentration in mol/L.

IFWM3398 (antibody, IgG1, V domains shown, mAb; IgG1/kappa said of the parent and of selected mAbs; also called IFWB3133) VH: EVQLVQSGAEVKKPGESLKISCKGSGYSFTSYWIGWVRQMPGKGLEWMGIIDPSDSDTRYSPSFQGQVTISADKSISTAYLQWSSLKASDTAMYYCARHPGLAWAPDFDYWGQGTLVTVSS VL: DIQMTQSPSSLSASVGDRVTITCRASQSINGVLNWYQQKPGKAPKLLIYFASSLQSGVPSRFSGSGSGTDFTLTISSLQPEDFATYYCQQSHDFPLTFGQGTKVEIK | 10.36

Now let's try a different one.
The recorded pKd for IFWM3409 (antibody, IgG1, V domains shown, mAb; IgG1/kappa said of the parent and of selected mAbs; also called IFWB3144) VH: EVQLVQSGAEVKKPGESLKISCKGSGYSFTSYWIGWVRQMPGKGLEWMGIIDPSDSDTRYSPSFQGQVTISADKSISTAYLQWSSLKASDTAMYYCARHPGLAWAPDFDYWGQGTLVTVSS VL: DIQMTQSPSSLSASVGDRVTITCRASQSIDNSYLNWYQQKPGKAPKLLIYGASSLQSGVPSRFSGSGSGTDFTLTISSLQPEDFATYYCQQGWDWPLTFGQGTKVEIK is 10.39
